Cited source: ChEMBL document CHEMBL1142651

Below are pKd values measured for UniProt P62993.
Sequence (P62993 whole entry): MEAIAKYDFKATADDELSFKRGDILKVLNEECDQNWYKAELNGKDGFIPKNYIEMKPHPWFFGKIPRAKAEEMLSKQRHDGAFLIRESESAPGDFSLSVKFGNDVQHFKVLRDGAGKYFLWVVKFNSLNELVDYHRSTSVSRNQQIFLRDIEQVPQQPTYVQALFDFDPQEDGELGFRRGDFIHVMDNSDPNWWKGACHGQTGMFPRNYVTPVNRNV
Entry type: numeric. Quantity: pKd, the -log10 of concentration in molar units.

IN: // fetch pKd given entry C[C@@]1(Cc2ccc(P(=O)(O)O)cc2)NC(=O)CC(c2ccc(CP(=O)(O)O)cc2)/C=C/C[C@@H](Cc2cccc3ccccc23)CNC(=O)[C@H](CC(N)=O)NC1=O (stereo in doubt; 10B)
OUT: 7.14

IN: // fetch pKd given entry C[C@@]1(Cc2ccc(P(=O)(O)O)cc2)NC(=O)CC(c2ccc(CP(=O)(O)O)cc2)/C=C/C[C@@H](Cc2cccc3ccccc23)CNC(=O)[C@H](CC(N)=O)NC1=O (stereo in doubt; 10A)
OUT: 10.01
